- PROTOCOL_DESCRIPTION: Intracellular fraction of unbound compound (fu,cell), dialysis of cell homogenate
- Type: in vitro ADME
- RUN_PARAMETERS: freshly isolated human hepatocyte homogenate; geometrical mean ± S.E.M.; read-out: fu,cell hepatocytes
ENDPOINT: fraction unbound at 4 h

Recorded fraction unbound at 4 h (compound O=C(O)C[C@H](O)C[C@H](O)/C=C/c1c(C2CC2)nc2ccccc2c1-c1ccc(F)cc1 [Pitavastatin] ): 0.017

Reported fraction unbound at 4 h ( COCc1c(C(C)C)nc(C(C)C)c(/C=C/[C@@H](O)C[C@@H](O)CC(=O)O)c1-c1ccc(F)cc1 [Cerivastatin] ) = 0.014

Recorded fraction unbound at 4 h (compound COc1ccc(CCN2CCC(Nc3nc4ccccc4n3Cc3ccc(F)cc3)CC2)cc1 [Astemizole] ): 0.00036

a: Cc1cccc(C)c1OCC(=O)N[C@@H](Cc1ccccc1)[C@@H](O)C[C@H](Cc1ccccc1)NC(=O)[C@H](C(C)C)N1CCCNC1=O [Lopinavir]
b: CN(CCOc1ccc(CC2SC(=O)NC2=O)cc1)c1ccccn1 (centres unmarked) [Rosiglitazone]
c: CC(C)NCC(O)COc1cccc2ccccc12 (centres unmarked) [Propranolol]
d: CC(=O)N1CCN(c2ccc(OCC3COC(Cn4ccnc4)(c4ccc(Cl)cc4Cl)O3)cc2)CC1 (centres unmarked) [Ketoconazole]
e: COc1ccc2c(c1)c(CC(=O)O)c(C)n2C(=O)c1ccc(Cl)cc1 [Indomethacin]
IN: Arrange the 5 compounds by rising fraction unbound at 4 h, starting with the smallest. Write the labels, ordered according to the request.
OUT: a, d, c, b, e

----------
- PROTOCOL_DESCRIPTION: Intracellular fraction of unbound compound (fu,cell), dialysis of cell homogenate
- Assay type: in vitro ADME
- RUN_PARAMETERS: human, OATP1B1-transfected HEK293 cell homogenate; read-out: Cell binding (fu,cell)
ENDPOINT: fraction unbound at 4 h
The response must contain the number and no unit.

In plain terms, CC(=O)N1CCN(c2ccc(OCC3COC(Cn4ccnc4)(c4ccc(Cl)cc4Cl)O3)cc2)CC1 (stereo not shown) has a documented fraction unbound at 4 h of 0.012

----------
- PROTOCOL_DESCRIPTION: Intracellular compound accumulation (Kp) and intracellular bioavailability (Fic)
- RUN_PARAMETERS: human, mock-transfected HEK293 cells
ENDPOINT: Kp at 45 min, 0.1 μM

Lab note: Cc1c(O)cccc1C(=O)N[C@@H](CSc1ccccc1)[C@H](O)CN1C[C@H]2CCCC[C@H]2C[C@H]1C(=O)NC(C)(C)C gave Kp at 45 min, 0.1 μM of 337

I: CC(C)NCC(O)COc1cccc2ccccc12 (stereo not shown)
II: CCOc1nc2cccc(C(=O)O)c2n1Cc1ccc(-c2ccccc2-c2nnn[nH]2)cc1
IN: Pick one: I or II . Which one has the lower reported Kp at 45 min, 0.1 μM? Pick one; state its label.
OUT: II

----------
- System: P-gp
- PROTOCOL_DESCRIPTION: Intracellular compound accumulation (Kp) and intracellular bioavailability (Fic)
- RUN_PARAMETERS: dog, MDCK II wild-type cells
ENDPOINT: Kp at 45 min

P: Cc1nccn1CC1CCc2c(c3ccccc3n2C)C1=O (stereo not shown)
Q: CC(C)NCC(O)COc1cccc2ccccc12 (stereo not shown)
R: CC(C)n1c(/C=C/C(O)CC(O)CC(=O)O)c(-c2ccc(F)cc2)c2ccccc21 (stereo not shown)
S: O=C(O)C[C@H](O)C[C@H](O)/C=C/c1c(C2CC2)nc2ccccc2c1-c1ccc(F)cc1
IN: Descending by Kp at 45 min please, for everything listed above. Returns: the labels listed in the requested order.
OUT: Q, P, R, S
